Assayed target: Full-length human PKCθ (Homo sapiens)
Construct: Full-length human PKCθ (Carna Biosciences, final 31 ng/mL); purchased Carna Biosciences
Sequence (Q04759 whole entry): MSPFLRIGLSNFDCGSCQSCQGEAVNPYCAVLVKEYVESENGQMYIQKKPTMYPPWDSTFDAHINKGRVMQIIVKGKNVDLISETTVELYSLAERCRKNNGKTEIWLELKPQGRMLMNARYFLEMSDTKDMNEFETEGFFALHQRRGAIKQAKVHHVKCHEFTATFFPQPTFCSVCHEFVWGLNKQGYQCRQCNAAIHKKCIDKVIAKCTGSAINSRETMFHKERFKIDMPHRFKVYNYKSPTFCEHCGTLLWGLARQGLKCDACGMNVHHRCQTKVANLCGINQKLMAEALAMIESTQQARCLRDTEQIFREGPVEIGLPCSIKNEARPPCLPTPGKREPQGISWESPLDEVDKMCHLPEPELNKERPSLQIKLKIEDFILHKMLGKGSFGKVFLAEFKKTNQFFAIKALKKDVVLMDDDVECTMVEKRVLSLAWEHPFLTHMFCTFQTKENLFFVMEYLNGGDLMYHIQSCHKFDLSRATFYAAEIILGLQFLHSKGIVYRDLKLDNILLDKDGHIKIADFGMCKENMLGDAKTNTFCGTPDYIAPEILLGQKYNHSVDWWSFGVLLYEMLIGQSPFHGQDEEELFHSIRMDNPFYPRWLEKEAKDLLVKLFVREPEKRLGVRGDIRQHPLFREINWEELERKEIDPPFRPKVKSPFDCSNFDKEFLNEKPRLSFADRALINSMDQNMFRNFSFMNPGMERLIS
Protocol description: Measurement of human PKCθ enzyme inhibition activity (HTRF KinEASE S1 kit)
Assay type: biochemical
Run conditions: full-length human PKCθ, ATP 30 μM, HTRF; read-out: IC50 (nM), human PKCθ enzyme inhibition
Friendly reminder: IC50 below 4 nM is 1 (yes), at or above is 0 (no).

Item N#Cc1cnc(NCc2ccccc2Cl)nc1NC[C@]12CC3C[C@H](C1)[C@@H](NC1CCNCC1F)[C@@H](C3)C2 (relative stereo) : IC50 beneath 4 nM, strictly?
1 (yes)

Hello, I'm reviewing records and need to know if IC50 of N[C@@H]1[C@@H]2CC3C[C@H]1C[C@@](CNc1nc(NCc4ccccc4OC(F)(F)F)ncc1C(F)(F)F)(C3)C2 (relative stereo) is below 4 nM. Could you check?
0 (no)

# TODO verify IC50 < 4 nM strictly for this compound: COc1ccc(CO)cc1CNc1ncc(C#N)c(NC[C@]23CC4C[C@H](C2)[C@@H](N)[C@@H](C4)C3)n1
0 (no)

I wonder whether COc1ccccc1CNc1ncc(C#N)c(NC[C@]23CC4C[C@H](C2)[C@@H](NCC(CO)CO)[C@@H](C4)C3)n1 (relative stereo) has IC50 below 4 nM. Can you tell?
0 (no)

Does the reported IC50 of the following compound sit strictly below 4 nM? N#Cc1cnc(NCCc2ccc(O)cc2)nc1NC[C@]12CC3C[C@H](C1)[C@@H](N)[C@@H](C3)C2
1 (yes)

Strictly below 4 nM in IC50? N#Cc1cnc(NCc2ccccc2OC(F)(F)F)nc1NCC1[C@@H]2CC3C[C@H]1C[C@@](CN)(C3)C2 (stereo partly shown)
0 (no)

hey, is IC50 for N[C@@H]1[C@@H]2CC3C[C@H]1C[C@@](CNc1nc(NCc4ccccc4OC(F)(F)F)ncc1F)(C3)C2 (relative stereo) lower than 4 nM or not?
1 (yes)

Consider N#Cc1cnc(NCc2cccnc2Cl)nc1NC[C@]12CC3C[C@H](C1)[C@@H](N)[C@@H](C3)C2 . Does its IC50 lie strictly below 4 nM?
1 (yes)

Does N#Cc1cnc(NCc2ccccc2Cl)nc1NC[C@]12CC3C[C@H](C1)[C@@H](NCC(=O)N1CCC(O)CC1)[C@@H](C3)C2 (relative stereo) have IC50 strictly under 4 nM?
0 (no)

A record lists N#Cc1cnc(NCc2ccccc2Cl)nc1NC[C@]12CC3C[C@H](C1)[C@@H](NCC1CCN(CC(F)F)CC1)[C@@H](C3)C2 (relative stereo) . Is its IC50 below 4 nM?
1 (yes)

# strict comparison: is reported IC50 < 4 nM? input = N#Cc1cnc(NCc2ccccc2OC(F)(F)F)nc1NC[C@@H]1CC[C@@H](N)C1
0 (no)

Decide: IC50 of N#Cc1cnc(NCc2ccccc2OC(F)(F)F)nc1NCC1CN2CCC1CC2 (stereo not shown) strictly below 4 nM?
0 (no)

====

Assayed target: Full-length human PKCθ (Homo sapiens)
Construct: Full-length human PKCθ (Carna Biosciences, final 31 ng/mL); purchased Carna Biosciences
Protocol description: Measurement of human PKCθ enzyme inhibition activity (HTRF KinEASE S1 kit)
Format: biochemical
Endpoint name: pIC50
Note on pIC50: it is the negative log10 of concentration, concentration in mol/L.

Per the record, N#Cc1cnc(NCc2ccccc2Cl)nc1NC[C@]12CC3C[C@H](C1)[C@@H](NCC1CCN(CCF)CC1)[C@@H](C3)C2 has pIC50 of 9.40

====

Field: II (%) Remaining Rate II. Provide a value for each of the compounds that follow.
Assayed target: Cytochrome P450 (CYP3A4) (Homo sapiens, UniProt P08684)
Construct: human liver microsome (0.1 mg protein/mL); from tissue; host or cells: human liver microsomes
Sequence (P08684 whole entry): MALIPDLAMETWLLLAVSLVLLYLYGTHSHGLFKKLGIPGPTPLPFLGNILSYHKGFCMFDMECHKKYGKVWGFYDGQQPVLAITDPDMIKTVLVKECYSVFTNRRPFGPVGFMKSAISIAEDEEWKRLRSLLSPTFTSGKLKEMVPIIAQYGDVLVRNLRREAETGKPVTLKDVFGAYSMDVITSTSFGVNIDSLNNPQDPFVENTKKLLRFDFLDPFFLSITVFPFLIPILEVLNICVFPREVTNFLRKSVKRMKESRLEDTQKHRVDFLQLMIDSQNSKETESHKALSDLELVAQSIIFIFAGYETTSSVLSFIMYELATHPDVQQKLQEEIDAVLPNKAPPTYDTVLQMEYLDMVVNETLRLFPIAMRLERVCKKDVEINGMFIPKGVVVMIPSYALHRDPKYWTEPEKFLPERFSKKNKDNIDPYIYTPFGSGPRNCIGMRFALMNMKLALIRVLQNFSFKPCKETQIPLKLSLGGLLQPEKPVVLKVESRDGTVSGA
Protocol description: Measurement of cytochrome P450 (CYP3A4) enzyme inhibition activity in human liver microsome (inhibition tests I and II, midazolam substrate)
Format: in vitro ADME
Run conditions: inhibition test II: 5 μM test compound preincubated 30 minutes with human liver microsome and NADPH, then 2 μM midazolam 20 minutes; relative to test I
Please answer using a numeric value trailed by its unit.

// compound CCN1CCC(N[C@@H]2[C@@H]3CC4C[C@H]2C[C@@](CNc2nc(NCc5ccccc5Cl)ncc2C#N)(C4)C3)CC1 , assay Cytochrome P450 (CYP3A4) (Homo sapiens, UniProt P08684), II (%) Remaining Rate II value: 83%

Known value: Cytochrome P450 (CYP3A4) (Homo sapiens, UniProt P08684) II (%) Remaining Rate II of the compound CSc1ccccc1CNc1ncc(C#N)c(NC[C@]23CC4C[C@H](C2)[C@@H](N[C@H]2CC[C@H](O)CC2)[C@@H](C4)C3)n1 (relative stereo) equals 99%

Summary line: CSc1ccccc1CNc1ncc(C#N)c(NC[C@]23CC4C[C@H](C2)[C@@H](NC2CCC(O)CC2)[C@@H](C4)C3)n1 (relative stereo) , Cytochrome P450 (CYP3A4) (Homo sapiens, UniProt P08684), reported II (%) Remaining Rate II = 90%

Kindly note: Cytochrome P450 (CYP3A4) (Homo sapiens, UniProt P08684), COc1ccccc1CNc1ncc(C#N)c(NC[C@]23CC4C[C@H](C2)[C@@H](N[C@H]2CC[C@H](O)CC2)[C@@H](C4)C3)n1 (relative stereo) , II (%) Remaining Rate II value reported: 81%

Value (II (%) Remaining Rate II, Cytochrome P450 (CYP3A4) (Homo sapiens, UniProt P08684)) for record N#Cc1cnc(NCc2ccccc2Cl)nc1NC[C@]12CC3C[C@H](C1)[C@@H](NC1CCN(C4CCOCC4)CC1)[C@@H](C3)C2 (relative stereo) = 99%

// returns II (%) Remaining Rate II for CSc1ccccc1CNc1ncc(C#N)c(NC[C@]23CC4C[C@H](C2)[C@@H](NCC[C@H](O)CO)[C@@H](C4)C3)n1 (relative stereo) with Cytochrome P450 (CYP3A4) (Homo sapiens, UniProt P08684); value = 85%

Form field II (%) Remaining Rate II for item N#Cc1cnc(NCc2ccccc2Cl)nc1NC[C@]12CC3C[C@H](C1)[C@@H](NC1CCN(CCO)CC1)[C@@H](C3)C2 on Cytochrome P450 (CYP3A4) (Homo sapiens, UniProt P08684): 92%

The reported II (%) Remaining Rate II value, Cytochrome P450 (CYP3A4) (Homo sapiens, UniProt P08684), for CN([C@H]1CC[C@H](O)CC1)[C@@H]1[C@@H]2CC3C[C@H]1C[C@@](CNc1nc(NCc4ccccc4OC(F)(F)F)ncc1C#N)(C3)C2 reads 90%

Recorded II (%) Remaining Rate II for COc1ccccc1CNc1ncc(C#N)c(NC[C@]23CC4C[C@H](C2)[C@@H](NCC[C@@H](O)CO)[C@@H](C4)C3)n1 (relative stereo) on Cytochrome P450 (CYP3A4) (Homo sapiens, UniProt P08684) was 81%

Short answer on Cytochrome P450 (CYP3A4) (Homo sapiens, UniProt P08684) for N#Cc1cnc(NCc2ccccc2Cl)nc1NC[C@]12CC3C[C@H](C1)[C@@H](NC1CCC(N4CCC[C@@H]4CO)CC1)[C@@H](C3)C2 (relative stereo) , II (%) Remaining Rate II: 81%

====

What log10 IC50 was measured for each of the following?
Assayed target: Full-length human PKCθ (Homo sapiens)
Construct: Full-length human PKCθ (Carna Biosciences, final 31 ng/mL); purchased Carna Biosciences
Protocol description: Measurement of human PKCθ enzyme inhibition activity (HTRF KinEASE S1 kit)
Type: biochemical
Run conditions: full-length human PKCθ, ATP 30 μM, HTRF; read-out: IC50 (nM), human PKCθ enzyme inhibition
Form field - Quantity: IC50; Unit: nM; Scale: log10

Lab note: measured log10 IC50 of N#Cc1cnc(NCc2ccccc2OC(F)(F)F)nc1NC[C@]12CC3C[C@H](C1)C[C@@](CN)(C3)C2 was 1.18

The molecule N#Cc1cnc(NCc2ccccc2OC(F)(F)F)nc1NC[C@H]1C[C@H](N)C1 showed log10 IC50 equal to 1.95

# log10 IC50 (molecule: CSc1ncccc1CNc1ncc(C#N)c(NC[C@]23CC4C[C@H](C2)[C@@H](NC[C@H]2CC[C@H](CO)CC2)[C@@H](C4)C3)n1 (relative stereo) ) is -0.32

Form: molecule = CC(C)N1CCC(N[C@@H]2[C@@H]3CC4C[C@H]2C[C@@](CNc2nc(NCc5ccccc5OC(F)(F)F)ncc2C#N)(C4)C3)CC1 (relative stereo) ; log10 IC50 = -0.51

Entry under test: COc1ccccc1CNc1ncc(C#N)c(NC[C@]23CC4C[C@H](C2)[C@@H](NCC(O)CCO)[C@@H](C4)C3)n1 (stereo partly drawn) . Its log10 IC50 was 0.23

Value of log10 IC50 reported for the molecule N#Cc1cnc(NCc2ccccc2OC(F)F)nc1NC[C@]12CC3C[C@H](C1)[C@@H](NC[C@H]1CC[C@H](O)CC1)[C@@H](C3)C2 (relative stereo) is -0.39

src = patent US20110159019A1
